This collection of values is drawn from ChEMBL document CHEMBL1165968.

# STUDY SYSTEM: Inhibitor of nuclear factor kappa-B kinase subunit beta (Homo sapiens, UniProt O14920)
# Sequence (O14920 whole entry): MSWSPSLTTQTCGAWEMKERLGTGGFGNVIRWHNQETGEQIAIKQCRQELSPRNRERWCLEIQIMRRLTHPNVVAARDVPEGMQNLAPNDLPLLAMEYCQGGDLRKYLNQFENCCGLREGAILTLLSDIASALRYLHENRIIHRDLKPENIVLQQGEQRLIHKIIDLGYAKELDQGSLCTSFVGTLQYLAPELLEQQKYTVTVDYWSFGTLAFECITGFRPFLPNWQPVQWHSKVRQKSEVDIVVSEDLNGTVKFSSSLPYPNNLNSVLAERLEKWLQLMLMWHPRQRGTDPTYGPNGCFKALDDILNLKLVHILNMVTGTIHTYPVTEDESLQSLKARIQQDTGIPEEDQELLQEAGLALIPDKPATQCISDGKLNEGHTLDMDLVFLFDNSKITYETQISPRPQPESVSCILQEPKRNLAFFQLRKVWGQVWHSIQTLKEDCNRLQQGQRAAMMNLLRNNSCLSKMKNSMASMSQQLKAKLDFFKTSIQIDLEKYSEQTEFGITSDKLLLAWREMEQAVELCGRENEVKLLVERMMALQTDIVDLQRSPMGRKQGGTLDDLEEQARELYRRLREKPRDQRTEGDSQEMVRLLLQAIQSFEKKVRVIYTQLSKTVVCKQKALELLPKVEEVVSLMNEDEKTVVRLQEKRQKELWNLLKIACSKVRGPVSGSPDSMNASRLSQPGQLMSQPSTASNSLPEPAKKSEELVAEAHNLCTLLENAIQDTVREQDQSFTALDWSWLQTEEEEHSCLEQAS
# TEST PROTOCOL: Inhibition of IKK-beta by TR-FRET assay
REPORTED ENDPOINT: IC50 (µM)

# COMPOUND, EXPERIMENTAL VALUE
rows = [
    ("COc1cc(/C=N/NC(=O)Cc2nnc(NC(=O)c3ccc([N+](=O)[O-])cc3)s2)ccc1O", 6.98),
    ("COc1ccc(C(=O)Nc2nnc(CC(=O)N/N=C/c3ccc(O)c(OC)c3)s2)cc1", 10.8),
]

A = N#Cc1c(C2CCCNC2)cc(-c2ccccc2O)nc1N (stereo not given)
B = CC1=NN(c2ccc(S(N)(=O)=O)cc2)C(=O)/C1=C/c1ccc(-c2ccc3c(c2)C(=O)NC3=O)o1
[in] Please indicate which item has the smaller measured IC50: A versus B // respond with label for picked entry
[out] A
(A: 0.174 µM, B: 6.7 µM)
